Assay: E. coli acrAB mutant growth effects, primary screen, E. coli filamentation inducers, strain DRC39, OD650, 24 h (AID 1178);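 also: growth measured as culture turbidity by optical density at 650 nm; test concentration not given here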
Details: higher = more signal, called active from +8 up or from −8 down
measuredParameter: z-score
// return a plain number; no unit text

Query: // query z-score value for entry COc1ccc(O[C@H]2C=C[C@@H](C#Cc3ccccc3)O[C@@H]2CO)cc1
Response: 0.633

Query: Sample CCOC(=O)CCN1C(=O)[C@H]2[C@H]3[C@H](O)[C@H](O)CC(=NNC(=O)OCc4ccc(OC)cc4)[C@H]3CC[C@H]2C1=O — what was its z-score?
Response: -0.653

Query: # lookup: z-score of COc1ccc(COC(=O)NN=C2C[C@@H](O)[C@@H](O)[C@@H]3[C@@H]4C(=O)N([C@@H](C)c5ccccc5)C(=O)[C@@H]4CC[C@H]23)cc1
Response: -0.267

Query: Quick one: z-score of COC(=O)CC=C[C@@H](C)[C@@H](C=NOC[C@@H](O)[C@H]1O[C@@H]2OC(C)(C)O[C@@H]2[C@H]1O)OC ?
Response: 0.404

Query: Requested read-out: z-score. Entry: C=CC[C@@H]1C=C[C@H](ON=C2C[C@@H](O)[C@@H](O)[C@@H]3[C@@H]4C(=O)N(CC)C(=O)[C@@H]4CC[C@@H]23)[C@@H](CO)O1
Response: -0.939

Query: Sample C[C@@H](c1ccccc1)N1C(=O)[C@H]2[C@H]3[C@H](O)[C@H](O)CC(=NNC(=O)OCc4ccccc4)[C@@H]3CC[C@H]2C1=O — what was its z-score?
Response: 0.288

Query: Can you share its z-score? I mean this compound: Cc1ccc(C(C)C)n1C(=O)OC(C)(C)C
Response: 0.32
